system: CD2F1 mice, L1210 leukemia ip, survival T/C; experiment: NCI In Vivo Anticancer Drug Screen. Data for tumor model L1210 Leukemia (intraperitoneal) in CD2F1 (CDF1) mice; conditions: endpoint: mean survival time; dose: 25.0 mg/kg/injection; schedule: Q04DX003 (ip); vehicle: saline with Tween-80; higher = longer survival
Inconclusive results and toxic doses are left out. Non-standard residues stand in square brackets, D forms with d. Residues, ends and D or L forms follow the SMILES beside them. ξ: configuration not given here. *: point of attachment. ξV = CC(C)C(N)C(=O)O; ClAc = O=C(CCl)*
Quantity: T/C

>  <Compound>
CCOC(=O)c1ccc(NC(=O)Nc2ccc(Nc3ccccc3)cc2)cc1

>  <T/C>
96 % of control

$$$$
>  <Compound>
O=C1C=CC(=O)N1c1ccc(Cl)cc1[N+](=O)[O-]

>  <T/C>
98 % of control

$$$$
>  <Compound>
NC(=O)c1cc(N2CC2)c([N+](=O)[O-])cc1[N+](=O)[O-]

>  <T/C>
110 % of control

$$$$
>  <Compound>
C[N+](C)(CCO)Cc1ccccc1

>  <T/C>
97 % of control

$$$$

**Q:** Which T/C reading was recorded for the compound O=C(Nc1cccc(Cl)c1)Nc1ccccc1Cl ?
**A:** 93 % of control

**Q:** Quick one: T/C of CN(C)Cc1cc(Cl)cc(CN(C)C)c1O ?
**A:** 105 % of control

**Q:** If you can, please state the reported T/C value of CC(C)C(NC(=O)CNC(=O)CCl)C(=O)O (stereo not given) (ClAc-Gly-[ξV]-OH) .
**A:** 96 % of control

###

test system: CD2F1 mice, L1210 leukemia ip, survival T/C; test: NCI In Vivo Anticancer Drug Screen. Data for tumor model L1210 Leukemia (intraperitoneal) in CD2F1 (CDF1) mice; conditions: endpoint: mean survival time; dose: 50.0 mg/kg/injection; schedule: Q04DX003 (ip); vehicle: saline with Tween-80; higher = longer survival
Toxic doses and inconclusive results are not listed.
Reported T/C by item:

Answered examples (2):
>  <Compound>
N#CC1C(=O)c2ccccc2C1=O

>  <Study system>
CD2F1 mice, L1210 leukemia ip, survival T/C

>  <Quantity>
T/C

>  <Result>
93 % of control

$$$$
>  <Compound>
CC(=O)NC(Cc1cc(I)c(OC(C)=O)c(I)c1)C(=O)O (configuration not stated)

>  <Study system>
CD2F1 mice, L1210 leukemia ip, survival T/C

>  <Quantity>
T/C

>  <Result>
101 % of control

$$$$

**Q:** Param readout = T/C; param system = CD2F1 mice, L1210 leukemia ip, survival T/C; param query = Cc1ccc(N)cc1 (tested in a mixture with another compound) ; response: value
**A:** 107 % of control

**Q:** // fetch CD2F1 mice, L1210 leukemia ip, survival T/C T/C for O=c1cc(C(F)(F)F)[nH]c2ccc(Br)cc12
**A:** 97 % of control

**Q:** Request body: readout T/C, system CD2F1 mice, L1210 leukemia ip, survival T/C, query C[n+]1c(/C=C/c2ccccc2Cl)ccc2ccccc21 . Return the value.
**A:** 95 % of control

**Q:** Enter reported T/C observed with CD2F1 mice, L1210 leukemia ip, survival T/C for S=C(NCCNC(=S)[S][Sn]([c]1ccccc1)([c]1ccccc1)[c]1ccccc1)[S][Sn]([c]1ccccc1)([c]1ccccc1)[c]1ccccc1
**A:** 93 % of control

###

test system: CD2F1 mice, L1210 leukemia ip, survival T/C; test: NCI In Vivo Anticancer Drug Screen. Data for tumor model L1210 Leukemia (intraperitoneal) in CD2F1 (CDF1) mice; conditions: endpoint: mean survival time; dose: 100.0 mg/kg/injection; schedule: Q01DX001 (ip); vehicle: Klucel (hydroxypropylcellulose) (HPC); higher = longer survival
Inconclusive results and toxic doses are left out.
We begin with a simple list: items and their reported T/C.

Check out these entries, answers already filled in.
>  <Compound>
O=C(O)CCC(NC(=O)c1ccccc1)C(=O)O (centres undefined)

>  <Quantity>
T/C

>  <Result>
96 % of control

$$$$
>  <Compound>
CCCCCCCCCCCCCCCCCCN=C(N)N

>  <Quantity>
T/C

>  <Result>
103 % of control

$$$$
>  <Compound>
O=S(=O)(Cc1ccccc1)CC(Br)CBr (centres undefined)

>  <Quantity>
T/C

>  <Result>
91 % of control

$$$$
>  <Compound>
O=C1C2C(c3ccccc3)=C(c3ccccc3)C1C1(c3ccccc3)C(c3ccccc3)=CC(=O)C21 (centres undefined)

>  <Quantity>
T/C

>  <Result>
89 % of control

$$$$
>  <Compound>
CNc1ccc(CSc2ccccc2)cc1

>  <Quantity>
T/C

>  <Result>
96 % of control

$$$$
>  <Compound>
O=C(O)c1ccccc1SCCO

>  <Quantity>
T/C

>  <Result>
93 % of control

$$$$
>  <Compound>
CCOC(=O)C(C)(C(=O)OCC)c1cc2ccccc2c2ccccc12

>  <Quantity>
T/C

>  <Result>
104 % of control

$$$$
>  <Compound>
O=C1C2C(C(=O)N1c1ccc([N+](=O)[O-])cc1)C1c3ccccc3C2C2CCCCN21 (centres undefined)

>  <Quantity>
T/C

>  <Result>
93 % of control

$$$$

Next:
**Q:** Given the compound CC(C)(C)OC(=O)N/N=C/c1ccc2c(c1)CCC2 , what is its reported T/C?
**A:** 101 % of control

###

tested on: CD2F1 mice, L1210 leukemia ip, survival T/C; assay: NCI In Vivo Anticancer Drug Screen. Data for tumor model L1210 Leukemia (intraperitoneal) in CD2F1 (CDF1) mice; settings: endpoint: mean survival time; dose: 50.0 mg/kg/injection; schedule: Q04DX003 (ip); vehicle: Klucel (hydroxypropylcellulose) (HPC); higher = longer survival
Inconclusive results and toxic doses are left out.
Listing: T/C of selected molecules

Sample records with T/C:
>  <Molecule>
Cc1ccccc1-n1c(O)c(N=Nc2ccccc2)c(=O)n(-c2ccccc2)c1=S

>  <Study system>
CD2F1 mice, L1210 leukemia ip, survival T/C

>  <T/C>
93 % of control

$$$$
>  <Molecule>
CC(=O)NCC1(c2ccccc2)CCN(CCCC(=O)c2ccc(F)cc2)CC1

>  <Study system>
CD2F1 mice, L1210 leukemia ip, survival T/C

>  <T/C>
100 % of control

$$$$
>  <Molecule>
Cc1c[nH]c(=O)n(CC(=O)C2(O)CCC3C4CCC5=CC(=O)CCC5(C)C4CCC32C)c1=O (centres undefined)

>  <Study system>
CD2F1 mice, L1210 leukemia ip, survival T/C

>  <T/C>
102 % of control

$$$$

Would you kindly look at the next entry?
**Q:** Request the reported T/C associated with Nc1ncnc2sc3c(c12)CCCC3
**A:** 96 % of control

###

test system: CD2F1 mice, L1210 leukemia ip, survival T/C; assay: NCI In Vivo Anticancer Drug Screen. Data for tumor model L1210 Leukemia (intraperitoneal) in CD2F1 (CDF1) mice; conditions: endpoint: mean survival time; dose: 50.0 mg/kg/injection; schedule: Q01DX005 (ip); vehicle: water; higher = longer survival
Toxic doses and inconclusive results are not listed.
As shown below, each of these molecules has a reported T/C value.

See these solved cases before continuing.
>  <Molecule>
[N-]=[N+]=NCc1cn(C2CC(O)C(CO)O2)c(=O)[nH]c1=O (stereo not given)

>  <T/C>
100 % of control

$$$$
>  <Molecule>
COC(=O)C(N)CSCSCc1ccccc1 (stereo not given)

>  <T/C>
93 % of control

$$$$

**Q:** Given the entry C1CN2CCN1CC2.O.[Cl][Pt][Cl] , what T/C was observed with CD2F1 mice, L1210 leukemia ip, survival T/C?
**A:** 92 % of control

**Q:** Under CD2F1 mice, L1210 leukemia ip, survival T/C: T/C value of Nc1ncnc2c1c1c(=O)[nH]c(=S)[nH]c1n2C1OC(CO)C(O)C1O (stereo not given) ?
**A:** 100 % of control

**Q:** Form entry - test system: CD2F1 mice, L1210 leukemia ip, survival T/C; read-out: T/C; molecule: CCOc1nc(N)nc2c1ncn2C1CC(O)C(CO)O1 (stereo not given)
**A:** 102 % of control

###

T/C overview
test system: CD2F1 mice, L1210 leukemia ip, survival T/C; assay: NCI In Vivo Anticancer Drug Screen. Data for tumor model L1210 Leukemia (intraperitoneal) in CD2F1 (CDF1) mice; details: endpoint: mean survival time; dose: 12.5 mg/kg/injection; schedule: Q01DX009 (ip); vehicle: saline; higher = longer survival
Inconclusive results and toxic doses are left out.

**Q:** API: value(readout= T/C, system= CD2F1 mice, L1210 leukemia ip, survival T/C, query= C[As](C)[Se]C1OC(CO)C(O)C(O)C1O (centres undefined) )
**A:** 103 % of control

**Q:** Notebook: pull reported T/C for CD2F1 mice, L1210 leukemia ip, survival T/C, entry CC1(C)CC(NC2=NCCO2)CC(C)(C)N1
**A:** 98 % of control
